system: Vero E6 infected with SARS-CoV-2; assay: morphology score (similarity to uninfected cells); higher = more like uninfected cells; details: 24 h
experimental readout: morphology score
// return a plain number; no unit text

A selection of reference data follows.
NC(=O)c1ccc([N+](=O)[O-])cc1Cl [aklomide] (10 µM)	-0.229
CCOc1ccc(S(=O)(=O)O)c2cccnc12 [actinoquinol] (10 µM)	0.0631
CCN1CCCC1CNC(=O)c1cc(S(=O)(=O)CC)c(N)cc1OC (stereo not drawn) [amisulpride] (10 µM)	0.114
N#Cc1nn(-c2c(Cl)cc(C(F)(F)F)cc2Cl)c(N)c1[S+]([O-])C(F)(F)F (stereo not drawn) [fipronil] (10 µM)	0.0672
CC(C)[C@](O)(c1ccc2cc(OC(F)F)c(OC(F)F)cc2c1)c1c[nH]nn1 (10 µM)	0.165
C[C@@H](NCCCc1cccc(C(F)(F)F)c1)c1cccc2ccccc12 [cinacalcet] (10 µM)	0.845

In: Please look up its morphology score: CC[C@H]1[C@@H](O)[C@@H]2[C@H](CC[C@]3(C)[C@@H]([C@H](C)CCOS(=O)(=O)O)CC[C@@H]23)[C@@]2(C)CC[C@@H](O)C[C@@H]12 (10 µM)
Out: -0.0685

In: Queued: O=C(CCc1ccc(O)cc1)c1c(O)cc(O)cc1O[C@@H]1O[C@H](CO)[C@@H](O)[C@H](O)[C@H]1O [phlorizin] (10 µM)
Out: 0.166

In: Please answer likewise for C[S+](C)CC[C@H](N)C(=O)O [cabagin] (10 µM)
Out: 0.00749

In: Subsequent entry: N=C(N)NC(=N)Nc1cccc(Cl)c1 [m-chlorophenylbiguanide] (10 µM)
Out: -0.0474

In: What do we get for C[C@@H]1CC[C@H]2C(C)(C)[C@H]3C[C@@]12CC[C@@]3(C)O [cedrol] (10 µM) ?
Out: 0.0579

In: One more compound: CO[C@@H]1[C@@H](O[C@@H]2O[C@H](C)[C@@H](O[C@H]3C[C@@](C)(O)[C@@H](OC(=O)CC(C)C)[C@H](C)O3)[C@H](N(C)C)[C@H]2O)[C@@H](CC=O)C[C@@H](C)[C@@H](O)/C=C/C=C/C[C@@H](C)OC(=O)C[C@H]1OC(C)=O [josamycin] (10 µM)
Out: -0.0313

In: Same read-out for CC(C)SC(=N)N [S-isopropylisothiourea] (10 µM) ?
Out: 0.0211

In: Check CC(C)(CC(=O)N1CCCC1)NCC(=O)N1C[C@@H](F)C[C@H]1C#N (10 µM) too.
Out: 0.0148

In: Also Cc1cccc(-c2[nH]c(C(C)(C)C)nc2-c2ccc3c(c2)OCO3)n1 (10 µM) ?
Out: -0.132

In: Can you handle CC(C)(C)NCC(O)c1cc(O)cc(O)c1 (stereo not drawn) (10 µM) next?
Out: 0.0272

In: # iterate: COc1cc(C)[nH]c(=O)c1CNC(=O)c1c(C)n([C@H](C)C2CCOCC2)c2ccccc12 (10 µM)
Out: 0.0908

In: Moving on to Cc1cc(C(C)(C)C)cc(C)c1CC1=NCCN1 [xylometazoline] (10 µM)
Out: -0.0246
